# reported Binding selectivity ratio (Bcl-XL Ki/Bcl-2 Ki); entries follow
- test target: GST-Bcl-2 (Homo sapiens, UniProt P10415)
- Sequence (P10415 whole entry): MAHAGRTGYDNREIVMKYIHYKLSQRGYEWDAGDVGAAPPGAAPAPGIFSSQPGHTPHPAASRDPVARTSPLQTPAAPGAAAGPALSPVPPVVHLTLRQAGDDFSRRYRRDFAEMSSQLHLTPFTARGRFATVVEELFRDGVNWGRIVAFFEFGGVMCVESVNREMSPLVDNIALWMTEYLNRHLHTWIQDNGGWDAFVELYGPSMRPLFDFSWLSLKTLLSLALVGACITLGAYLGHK
- protocol description: TR-FRET binding assay, GST-Bcl-2 with F-Bak peptide probe
- measurement conditions: ratio of TR-FRET Ki values, Bcl-XL over Bcl-2

Below: 2 compounds and their reported Binding selectivity ratio (Bcl-XL Ki/Bcl-2 Ki).
>>> observed("CC1(C)CCC(CN2CCN(c3ccc(C(=O)NS(=O)(=O)c4ccc(NC5CCN(C6CCOCC6)CC5)c([N+](=O)[O-])c4)c(Oc4cccnc4)c3)CC2)=C(c2ccc(Cl)cc2)C1")
67.7
>>> observed("CC1(C)CCC(CN2CCN(c3ccc(C(=O)NS(=O)(=O)c4ccc(N[C@@H]5CCN(CC#N)C5)c([N+](=O)[O-])c4)c(Oc4cccc5[nH]cnc45)c3)CC2)=C(c2ccc(Cl)cc2)C1")
5832.2

Shift focus to the following entry.
Exercise: Query the reported Binding selectivity ratio (Bcl-XL Ki/Bcl-2 Ki) for GST-Bcl-2 (Homo sapiens, UniProt P10415); item: CC1(C)CCC(CN2CCN(c3ccc(C(=O)NS(=O)(=O)c4cnc(OCC5CCOC5)c(Cl)c4)c(Oc4cccc5[nH]ncc45)c3)CC2)=C(c2ccc(Cl)cc2)C1 (stereo not drawn)
Solution: 1153.3

Source of measurements: patent US9073855B2
